Assay: Pharmacokinetic detection in rats after intravenous injection and oral administration
Type: in vivo, Sprague-Dawley (SD) rats
Settings: in vivo; rat, oral administration, 10 mg/kg
Measure Name: AUC (ng·h/mL)

>>> numeric_readout("NC(=O)c1nn(-c2ccc(N3CCN(CC4CCN(c5ccc(NC6CCC(=O)NC6=O)cc5F)CC4)CC3)cc2)cc1NC(=O)c1cccc(C(F)(F)F)n1 (centres unmarked)")
19300
>>> numeric_readout("Cn1c(=O)n(C2CCC(=O)NC2=O)c2cccc(N3CCC(CN4CCN(c5ccc(-n6cc(NC(=O)c7cccc(C(F)(F)F)n7)c(C(N)=O)n6)cc5)CC4)CC3)c21 (centres unmarked)")
6560
>>> numeric_readout("Cn1c(=O)n(C2CCC(=O)NC2=O)c2cccc(C#CCOC3CCN(CC4CCC(n5cc(NC(=O)c6cnn7ccc(N8CC9CC8CO9)nc67)c(C(F)F)n5)CC4)CC3)c21 (centres unmarked) [Control compound 1, reference compound]")
428
>>> numeric_readout("NC(=O)c1nn(-c2ccc(N3CCN(CC4CCN(c5ccc6c(c5)CN(C5CCC(=O)NC5=O)C6=O)CC4)CC3)cc2)cc1NC(=O)c1cccc(C(F)(F)F)n1 (centres unmarked)")
3520
>>> numeric_readout("NC(=O)c1nn(-c2ccc(N3CCN(CCN4CCN(c5ccc6c(c5)C(=O)N(C5CCC(=O)NC5=O)C6=O)CC4)CC3)cc2)cc1NC(=O)c1cccc(C(F)(F)F)n1 (centres unmarked)")
1130

###

Molecular target: UniProt:Q9NWZ3
Assay: Assay for inhibitory effect of compound on IRAK4 kinase activity (KinEASE-STK S1 HTRF kit)
Format: biochemical
Conditions: kinase 8 nM, ATP 80 µM, 37°C 90 minutes; read-out: IRAK4 HTRF IC50
Property: IC50; scope: individual compounds
Measure Name: IC50

>>> result("NC(=O)c1nn(-c2ccccc2)cc1NC(=O)c1cccc(-c2cc[nH]c2)n1")
"100 to 1000 nM"
>>> result("NC(=O)c1nn(-c2ccc(C(=O)N3CCNCC3)cc2)cc1NC(=O)c1cccc(C(F)(F)F)n1")
"< 100 nM"
>>> result("NC(=O)c1nn(-c2ccc(N3CCN(C(=O)c4ccccc4)CC3)cc2)cc1NC(=O)c1cccc(C(F)(F)F)n1")
"< 100 nM"
>>> result("COCc1ccc(-n2cc(NC(=O)c3cccc(C(F)(F)F)n3)c(C(N)=O)n2)cc1")
"< 100 nM"
>>> result("CC(=O)NCc1ccc(-n2cc(NC(=O)c3cccc(C(F)(F)F)n3)c(C(N)=O)n2)cc1")
"< 100 nM"
>>> result("O=C(Nc1cn(-c2ccccc2)nc1C(=O)CC(F)(F)F)c1cccc(-c2ccn[nH]2)n1")
"100 to 1000 nM"
>>> result("NC(=O)c1cc(-c2ccccc2)sc1NC(=O)c1cccc(C(F)(F)F)n1")
"> 1000 nM"
>>> result("CN(C)Cc1ccc(-n2cc(NC(=O)c3cccc(C(F)(F)F)n3)c(C(N)=O)n2)cc1")
"< 100 nM"

###

Property: DC50; scope: individual compounds
Target: IRAK4 (Homo sapiens, UniProt Q9NWZ3)
Sequence (Q9NWZ3 whole entry): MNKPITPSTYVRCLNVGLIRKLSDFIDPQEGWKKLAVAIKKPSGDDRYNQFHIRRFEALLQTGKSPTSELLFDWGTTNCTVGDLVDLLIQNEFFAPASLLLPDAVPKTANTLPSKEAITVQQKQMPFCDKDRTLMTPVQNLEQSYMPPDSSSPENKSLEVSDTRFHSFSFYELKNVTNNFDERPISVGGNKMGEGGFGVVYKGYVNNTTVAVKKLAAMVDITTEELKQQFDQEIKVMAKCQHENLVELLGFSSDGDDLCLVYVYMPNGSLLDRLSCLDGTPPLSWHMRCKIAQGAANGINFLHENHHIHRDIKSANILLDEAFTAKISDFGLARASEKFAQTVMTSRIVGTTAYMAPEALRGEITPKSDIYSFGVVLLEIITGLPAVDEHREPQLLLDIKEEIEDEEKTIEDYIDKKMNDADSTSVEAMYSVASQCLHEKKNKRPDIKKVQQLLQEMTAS
Assay: Degradation of IRAK4 in THP1 cells, Western blot
Type: cell-based
Set-up: Degradation of IRAK4 in THP1 by compound; host or cells: THP-1
Settings: THP-1 cells, 24 hours of incubation, IRAK4 protein by Western blot; read-out: DC50
Structures can show the parent of a compound that is named as a salt.
Measure Name: DC50

>>> result("CC(C)(O)c1nn(-c2ccc(N3CCN(CC4CCN(c5ccc(NC6CCC(=O)NC6=O)cn5)CC4)CC3)cc2)cc1NC(=O)c1cccc(C(F)(F)F)n1 (centres unmarked) [Compound A438, formate]")
"< 100 nM"
>>> result("NC(=O)c1nn(-c2ccc(N3CCN(CC4CCN(c5ccc6c(c5)CN(C5CCC(=O)NC5=O)C6=O)CC4(F)F)CC3)cc2)cc1NC(=O)c1cccc(C(F)(F)F)n1 (centres unmarked)")
"< 100 nM"
>>> result("COc1ccc(C(=O)N2CCC(CN3CCN(c4ccc(-n5cc(NC(=O)c6cccc(-c7ccn[nH]7)n6)c(S(N)(=O)=O)n5)cc4)CC3)C2)cc1N1CCC(=O)NC1=O (centres unmarked) [Compound A329, trifluoroacetate]")
"< 100 nM"
>>> result("NC(=O)c1nn(-c2ccc(N3CCN(CC4CC5(CCN(c6ccc(N7CCC(=O)NC7=O)cc6)CC5)C4)CC3)cc2)cc1NC(=O)c1cccc(C(F)(F)F)n1")
"100 to 1000 nM"
>>> result("N#Cc1ccc(C(=O)Nc2cn(-c3ccc(N4CCN(CC5CCN(c6ccc(NC7CCC(=O)NC7=O)cc6F)CC5)CC4)cc3)nc2C(N)=O)nc1 (centres unmarked)")
"> 1000 nM"
>>> result("COc1ccc(C(=O)N2CCC(CCN3CCN(c4ccc(N5C=C(NC(=O)c6cccc(C(F)(F)F)n6)C(=C=O)N5)cc4)CC3)C2)cc1N1CCC(=O)NC1=O (centres unmarked)")
"< 100 nM"
>>> result("Cn1c(=O)n(C2CCC(=O)NC2=O)c2cccc(N3CCC4(CC3)CN(CCc3ccc(-n5cc(NC(=O)c6cccc(C(F)(F)F)n6)c(C(N)=O)n5)cc3)C4)c21 (centres unmarked)")
"< 100 nM"
>>> result("NC(=O)c1nn(-c2ccc(N3CCC(NCC4CCN(c5ccc6c(c5)C(=O)N(C5CCC(=O)NC5=O)C6=O)C4)CC3)cc2)cc1NC(=O)c1cccc(C(F)(F)F)n1 (centres unmarked)")
"< 100 nM"
>>> result("COc1cc(NC2CCC(=O)NC2=O)ccc1N1CCC(N2CCN(c3ccc(-n4cc(NC(=O)c5cccc(C(F)(F)F)n5)c(C(N)=O)n4)cc3)CC2)CC1 (centres unmarked)")
"< 100 nM"
>>> result("CN(c1ccc(N2CCC(CN3CCN(c4ccc(-n5cc(NC(=O)c6cccc(C(F)(F)F)n6)c(C(N)=O)n5)cc4)CC3)CC2)c(F)c1)C1CCC(=O)NC1=O (centres unmarked) [Compound A447, formate]")
"< 100 nM"
>>> result("Cn1c(=O)n(C2CCC(=O)NC2=O)c2ccc(N3CCC(CN4CCN(c5ccc(-n6cc(NC(=O)c7cccc(C(F)(F)F)n7)c(C(N)=O)n6)cc5)CC4)C3)cc21 (centres unmarked)")
"< 100 nM"

###

Property: Cmax; scope: individual compounds
Assay: Pharmacokinetic detection in rats after intravenous injection and oral administration
Assay type: in vivo, Sprague-Dawley (SD) rats
Details: in vivo; rat, oral administration, 5 mg/kg
Measure Name: Cmax

>>> result("Cn1c(=O)n(C2CCC(=O)NC2=O)c2ccc(N3CCC(CN4CCN(c5ccc(-n6cc(NC(=O)c7cccc(C(F)(F)F)n7)c(C(N)=O)n6)cc5)CC4)CC3)cc21 (centres unmarked) [Compound A177]")
"120 ng/mL"
>>> result("NC(=O)c1nn(-c2ccc(N3CCN(CC4CCN(c5ccc6c(c5)CN(C5CCC(=O)NC5=O)C6=O)CC4(F)F)CC3)cc2)cc1NC(=O)c1cccc(C(F)(F)F)n1 (centres unmarked) [Compound A170]")
"285 ng/mL"

###

Target: IRAK4 (Homo sapiens, UniProt Q9NWZ3)
Experiment: Assay for inhibitory effect of compound on IRAK4 kinase activity (KinEASE-STK S1 HTRF kit)
Type: biochemical
Settings: kinase 8 nM, ATP 80 µM, 37°C 90 minutes; read-out: IRAK4 HTRF IC50
pIC50: −log10 of the molar value.
Measure Name: pIC50

>>> result("NC(=O)c1nn(-c2ccc(N)cc2)cc1NC(=O)c1cccc(C(F)(F)F)n1")
"6.00 to 7.00"
>>> result("CC(F)(F)c1cccc(C(=O)Nc2cn(-c3ccccc3)nc2C(N)=O)n1")
"6.00 to 7.00"
>>> result("NC(=O)c1cn(-c2ccccc2)cc1NC(=O)c1cccc(C(F)(F)F)n1")
"> 7.00"
>>> result("NC(=O)c1nc(-c2ccccc2)oc1NC(=O)c1cccc(C(F)(F)F)n1")
"< 6.00"
>>> result("O=C(NC1CC1)c1nn(C2CCC2)cc1NC(=O)c1cnn2ccc(-c3ccn[nH]3)nc12")
"6.00 to 7.00"
>>> result("CNC1CC(c2nn(-c3ccccc3)cc2NC(=O)c2cccc(C(F)(F)F)n2)C1 (centres unmarked)")
"< 6.00"
>>> result("NS(=O)(=O)c1nn(-c2ccccc2)cc1NC(=O)c1cccc(-c2c[nH]cn2)n1")
"> 7.00"
>>> result("COc1nn(C2CCC2)cc1NC(=O)c1cnn2ccc(-c3ccn[nH]3)nc12")
"> 7.00"

###

Biological target: IRAK4 (Homo sapiens, UniProt Q9NWZ3)
Assay: Degradation of IRAK4 in THP1 cells, Western blot
Format: cell-based
Design: Degradation of IRAK4 in THP1 by compound; host or cells: THP-1
Conditions: THP-1 cells, 24 hours of incubation, IRAK4 protein by Western blot; read-out: DC50
Property: DC50; scope: individual compounds
Measure Name: DC50

>>> result("Cn1c(=O)n(C2CCC(=O)NC2=O)c2cccc(C#CCOC3CCN(C(=O)c4ccc(-n5cc(NC(=O)c6cccc(-c7ccn[nH]7)n6)c(S(N)(=O)=O)n5)cc4)CC3)c21 (stereo not drawn) [Compound A335]")
"< 100 nM"
>>> result("NC(=O)c1nn(-c2ccc(N3CCN(C4CCN(c5ccc(OC6CCC(=O)NC6=O)cc5F)CC4)CC3)cc2)cc1NC(=O)c1cccc(C(F)(F)F)n1 (stereo not drawn) [Compound A430]")
"< 100 nM"
>>> result("COc1ccc(C(=O)N2CCC(CCN3CCN(c4ccc(-n5cc(NC(=O)c6cccc(-c7ccn[nH]7)n6)c(S(N)(=O)=O)n5)cc4)CC3)C2)cc1N1CCC(=O)NC1=O (stereo not drawn) [Compound A328]")
"< 100 nM"
>>> result("Cn1c(=O)n(C2CCC(=O)NC2=O)c2cccc(N3CCC(CN4CCN(C5CCC(n6cc(NC(=O)c7cccc(C(F)(F)F)n7)c(C(N)=O)n6)CC5)CC4)CC3)c21 (stereo not drawn) [Compound A380]")
"< 100 nM"
>>> result("COc1ccc(C(=O)N2CCC3(CC2)CC(Cc2ccc(-n4cc(NC(=O)c5cccc(C(F)(F)F)n5)c(C(N)=O)n4)cc2)C3)cc1N1CCC(=O)NC1=O [Compound A318]")
"< 100 nM"
>>> result("NS(=O)(=O)c1nn(-c2ccc(N3CCN(CC4CCN(c5ccc(NC6CCC(=O)NC6=O)cc5F)CC4)CC3)cc2)cc1NC(=O)c1cccc(-c2ccn[nH]2)n1 (stereo not drawn) [Compound A325]")
"< 100 nM"
>>> result("COc1ccc(C(=O)N2CCC(CCN3CCN(c4ccc(-n5cc(NC(=O)c6cccc(-c7ccn[nH]7)n6)c(S(N)(=O)=O)n5)cc4)CC3)CC2)cc1N1CCC(=O)NC1=O [Compound A324]")
"< 100 nM"
>>> result("NC(=O)c1nn(-c2ccc(N3CCN(CC4CCN(c5ccc(NC6CCC(=O)NC6=O)cn5)CC4)CC3)cc2)cc1NC(=O)c1cccc(C(F)(F)F)n1 (stereo not drawn) [Compound A396]")
"< 100 nM"
>>> result("CC(C)(O)c1nn(-c2ccc(N3CCN(CCC4CCN(C(=O)c5ccc(F)c(N6CCC(=O)NC6=O)c5)CC4)CC3)cc2)cc1NC(=O)c1cccc(C(F)(F)F)n1 [Compound A453]")
"< 100 nM"
>>> result("Cn1c(=O)n(C2CCC(=O)NC2=O)c2cccc(C(=O)N3CCC4(CCN(Cc5ccc(-n6cc(NC(=O)c7cccc(-c8ccn[nH]8)n7)c(S(N)(=O)=O)n6)cc5)C4)CC3)c21 (stereo not drawn) [Compound A357]")
"< 100 nM"
>>> result("Cn1c(=O)n(C2CCC(=O)NC2=O)c2cccc(N3CCC(CN4CCN(c5ccc(-n6cc(NC(=O)c7cccc(C(F)(F)F)n7)c(C(N)=O)n6)cc5)CC4)C3)c21 (stereo not drawn) [Compound A305]")
"100 to 1000 nM"
>>> result("NC(=O)c1nn(-c2ccc(N3CCN(C(=O)C4CCN(c5cc(F)c(C6CCC(=O)NC6=O)c(F)c5)C4)CC3)cc2)cc1NC(=O)c1cccc(C(F)(F)F)n1 (stereo not drawn) [Compound A414]")
"< 100 nM"
>>> result("CC(C)(O)c1nn(-c2ccc(N3CCN(CC4CCN(c5ccc(OC6CCC(=O)NC6=O)cn5)CC4)CC3)cc2)cc1NC(=O)c1cccc(C(F)(F)F)n1 (stereo not drawn) [Compound A437]")
"< 100 nM"
>>> result("NC(=O)c1nn(-c2ccc(N3CCN(C(=O)C4CCN(c5ccc(OC6CCC(=O)NC6=O)cn5)CC4)CC3)cc2)cc1NC(=O)c1cccc(C(F)(F)F)n1 (stereo not drawn) [Compound A415]")
"< 100 nM"
>>> result("NC(=O)c1nn(-c2ccc(N3CCN(C4CCN(c5ccc(C(=O)NC6CCC(=O)NC6=O)cn5)CC4)CC3)cc2)cc1NC(=O)c1cccc(C(F)(F)F)n1 (stereo not drawn) [Compound A433]")
"100 to 1000 nM"
>>> result("COc1cc(NC2CCC(=O)NC2=O)ccc1N1CCC(CN2CCN(c3ccc(-n4cc(NC(=O)c5cccc(C(F)(F)F)n5)c(C(N)=O)n4)cc3)CC2)CC1 (stereo not drawn) [Compound A423]")
"100 to 1000 nM"
>>> result("CC(C)(O)c1nn(-c2ccc(N3CCN(C4CCN(c5ccc(NC6CCC(=O)NC6=O)cc5F)CC4)CC3)cc2)cc1NC(=O)c1cncc(C#N)c1 (stereo not drawn) [Compound A389]")
"> 1000 nM"
>>> result("NC(=O)c1nn(-c2ccc(N3CCN(C(=O)N4CCC(c5ccc(OC6CCC(=O)NC6=O)cc5F)CC4)CC3)cc2)cc1NC(=O)c1cccc(C(F)(F)F)n1 (stereo not drawn) [Compound A355]")
"< 100 nM"
>>> result("Cn1c(=O)n(C2CCC(=O)NC2=O)c2cccc(C#CCOC3CN(C(=O)c4ccc(-n5cc(NC(=O)c6cccc(-c7ccn[nH]7)n6)c(S(N)(=O)=O)n5)cc4)C3)c21 (stereo not drawn) [Compound A348]")
"< 100 nM"
>>> result("NC(=O)c1nn(-c2ccc(N3CCN(CC4CCN(c5ccc6c(c5)C(=O)N(C5CCC(=O)NC5=O)C6=O)C4)CC3)cc2)cc1NC(=O)c1cccc(C(F)(F)F)n1 (stereo not drawn) [Compound A227]")
"< 100 nM"
>>> result("Cn1c(=O)n(C2CCC(=O)NC2=O)c2cccc(N3CCC(C(=O)N4CCN(c5ccc(-n6cc(NC(=O)c7cccc(C(F)(F)F)n7)c(C(N)=O)n6)cc5)CC4)CC3)c21 (stereo not drawn) [Compound A368]")
"< 100 nM"
